- Target System: HLA-A*26:01
- Method Summary: IEDB peptide-MHC binding, purified MHC/competitive/fluorescence; filed as Kd, often an IC50 or EC50 that approximates it; bounds were set here for any values at or beyond the usual limits of such assays
- Measurement Parameters: source organism: Francisella tularensis subsp. tularensis FSC198
pKd: −log10 of the molar value.
Value Kind: pKd

Form field pKd, entry `EFKQILTDF` : ≤ 4.70

---

- Target System: HLA-B*07:02
- Method Summary: IEDB peptide-MHC binding, purified MHC/direct/fluorescence; filed as Kd, often an IC50 or EC50 that approximates it; bounds were set here for any values at or beyond the usual limits of such assays
- Measurement Parameters: source organism: Vibrio parahaemolyticus
Value Kind: Kd

Form field Kd, entry `YREAGIPVL` : ≥ 20 µM
